Target: Rhesus/Macaque TNF (rhesus/macaque, UniProt P48094 77-233)
Sequence (P48094 77-233 limits assumed): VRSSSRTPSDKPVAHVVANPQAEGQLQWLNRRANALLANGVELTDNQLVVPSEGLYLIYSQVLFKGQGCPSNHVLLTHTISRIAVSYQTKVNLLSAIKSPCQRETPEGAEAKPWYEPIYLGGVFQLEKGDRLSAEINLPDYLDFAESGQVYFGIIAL
Assay: cell-based or functional assay
// rhesus TNF neutralization IC50 (L929 bioassay) lookup, one value per entry
State the answer as a number, implicitly in nM.

binder	number
hMAK195-AM18 (antibody, V domains shown) VH: EVQLVESGGGLVQPGGSLRLSCAASGFTFSNYGVTWVRQAPGKGLEWVSMIWADGSTHYASSVKGRFTISRDNSKNTLYLQMNSLRAEDTAVYYCAREWQHGPSAYWGQGTLVTVSS VL: DIQMTQSPSSLSASVGDRVTITCKASQAVSSAVAWYQQKPGKAPKLLIYWASTRHTGVPSRFSGSGSGTDFTLTISSLQPEDFATYYCQQHYSTPFTFGQGTKLEIKR	0.441

Quick one: give measured rhesus TNF neutralization IC50 (L929 bioassay) for hMAK195-AM19 (antibody, V domains shown) VH: EVQLVESGGGLVQPGGSLRLSCAASGFTFSNYGVSWVRQAPGKGLEWVSMIWADGSTHYASSLKGRFTISRDNSKNTLYLQMNSLRAEDTAVYYCAREWQHGPAAYWGQGTLVTVSS VL: DIQMTQSPSSLSASVGDRVTITCKASQAVSSAVAWYQQKPGKAPKLLIYWASTRHTGVPSRFSGSGSGTDFTLTISSLQPEDFATYYCQQHYSTPFTFGQGTKLEIKR
1.21

// Input: hMAK195-AM13 (antibody, V domains shown) VH: EVQLVESGGGLVQPGGSLRLSCAASGFTFSNYGVSWVRQAPGKGLEWVSLIRGDGSTDYASSLKGRFTISRDNSKNTLYLQMNSLRAEDTAVYYCAREWHHGPVAYWGQGTLVTVSS VL: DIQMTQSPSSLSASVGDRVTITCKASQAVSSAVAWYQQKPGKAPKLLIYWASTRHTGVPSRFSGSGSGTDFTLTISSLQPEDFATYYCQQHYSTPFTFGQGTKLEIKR . Output its rhesus TNF neutralization IC50 (L929 bioassay) only.
4.64

Give the value of rhesus TNF neutralization IC50 (L929 bioassay) reported for the following: hMAK195-AM23 (antibody, V domains shown) VH: EVQLVESGGGLVQPGGSLRLSCAASGFTFSNYGVTWVRQAPGKGLEWVSMIWADGSTHYADSVKSRFTISRDNSKNTLYLQMNSLRAEDTAVYYCAREWQHGPLAYWGQGTLVTVSS VL: DIQMTQSPSSLSASVGDRVTITCRASQLVSSAVAWYQQKPGKAPKLLIYWASTLHSGVPSRFSGSGSGTDFTLTISSLQPEDFATYYCQQHYSTPFTFGQGTKLEIKR
2.63
